Biological target: Human Factor XIIa (Homo sapiens, UniProt P00748)
Construct: purchased Enzyme Research Laboratories
Sequence (P00748 373-615 limits assumed): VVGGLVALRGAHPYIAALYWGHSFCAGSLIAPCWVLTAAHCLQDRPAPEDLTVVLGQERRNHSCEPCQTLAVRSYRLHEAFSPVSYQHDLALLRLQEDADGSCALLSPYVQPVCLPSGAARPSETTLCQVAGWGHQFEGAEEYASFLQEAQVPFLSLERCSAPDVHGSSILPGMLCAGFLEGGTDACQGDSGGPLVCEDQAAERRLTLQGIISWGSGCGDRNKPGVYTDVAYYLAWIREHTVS
Assay: Factor XIIa inhibitory activity in vitro (fluorogenic substrate H-DPro-Phe-Arg-AFC)
Assay type: biochemical
Conditions: 25° C., class symbols, read-out: Human FXIIa IC50
Please provide measured IC50 for the entries that follow.

Dear colleague, I am looking for the recorded IC50 of the following molecule: Nc1nccc2cc(CNC(=O)[C@H](Cc3ccc(F)c(F)c3)NC(=O)c3ccc(-n4ccnc4)nc3)ccc12 10 to 40 µM

Reported IC50, molecule CC(C)N[C@H](CCc1ccccc1)C(=O)N[C@@H](C)C(=O)NCc1cc2c(N)nccc2s1 : ____ 0.03 to 0.1 µM

Name the recorded IC50 for CC(C)n1nnc2cc(C(=O)N[C@@H](Cc3ccc(F)c(F)c3)C(=O)NCc3ccc4c(N)nccc4c3)ccc21 . 10 to 40 µM

Returns the measured IC50 for the input molecule. Input: Nc1nccc2cc(CNC(=O)[C@H](Cc3ccc(F)c(F)c3)NC(=O)c3cccc(-n4cccn4)c3)ccc12 3 to 10 µM

Form field: reported IC50 of C[C@H](NC(=O)[C@@H](CCc1ccccc1)NCc1ccccc1)C(=O)NCc1ccc2[nH]cc(Cl)c2c1 1 to 3 µM

Return reported IC50; argument: CC(C)N(C)[C@H](C)C(=O)N[C@@H](Cc1ccc(F)c(F)c1)C(=O)NCc1ccc2c(N)nccc2c1 0.28 to 1 µM

Looking for the measured IC50 of C[C@@H]1CCC[C@H](C)N1CC(=O)N[C@@H](Cc1ccc(F)c(F)c1)C(=O)NCc1cnc2[nH]ccc2c1 , can you help? 3 to 10 µM
